- TARGET OR SYSTEM: D2-Zn-WH helix4A (human, UniProt P46063 282-616, F420A;F424A;S427A;S428A)
- Sequence (P46063 282-616 F420A/F424A/S427A/S428A): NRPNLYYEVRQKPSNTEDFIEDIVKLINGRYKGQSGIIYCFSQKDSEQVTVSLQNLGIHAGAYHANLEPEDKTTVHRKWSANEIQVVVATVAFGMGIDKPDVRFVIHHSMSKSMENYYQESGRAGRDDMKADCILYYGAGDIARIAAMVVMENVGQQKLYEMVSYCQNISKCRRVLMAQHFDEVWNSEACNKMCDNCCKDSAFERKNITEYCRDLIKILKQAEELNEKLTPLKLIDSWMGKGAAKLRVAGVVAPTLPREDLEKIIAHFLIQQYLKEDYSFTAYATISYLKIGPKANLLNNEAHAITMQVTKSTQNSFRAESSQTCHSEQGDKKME
- PROTOCOL DESCRIPTION: fluorescence anisotropy
MEASURE NAME: pKd
Conceptually, pKd converts a concentration in mol/L into minus its log10.

Query: Give recorded pKd. Rec20_FL/Rec20R_3oh 20/10-mer 3' tailed duplex (dsDNA) DNA 1: GGATCTCGACGCTCTCCCTT DNA 2: GTCGAGATCC
Reply: 5.24
